src = paper PMC6624297

What melting point was measured for each of the following?

O=C(Nc1ccc(NS(=O)(=O)c2c[nH]c(=O)[nH]c2=O)cc1)Nc1cccc(Cl)c1 [Compound L13e]; 169 to 171 °C

I have 2 molecules here; please give me melting point for each one.
1. O=C(Nc1ccc(Cl)cc1)Nc1ccccc1NS(=O)(=O)c1c[nH]c(=O)[nH]c1=O [Compound L14f]
2. O=C(Nc1ccc(NS(=O)(=O)c2c[nH]c(=O)[nH]c2=O)cc1)Nc1ccccc1Cl [Compound L13d]

160 to 163 °C
167 to 169 °C

Query melting point for O=C(Nc1ccc(Cl)cc1)Nc1ccc(NS(=O)(=O)c2c[nH]c(=O)[nH]c2=O)cc1 [Compound L13f] 175 to 177 °C
